The origin of these recorded values is paper PMC8307404.

Molecular target: MARK1 (Homo sapiens, UniProt Q9P0L2)
Sequence (Q9P0L2 whole entry): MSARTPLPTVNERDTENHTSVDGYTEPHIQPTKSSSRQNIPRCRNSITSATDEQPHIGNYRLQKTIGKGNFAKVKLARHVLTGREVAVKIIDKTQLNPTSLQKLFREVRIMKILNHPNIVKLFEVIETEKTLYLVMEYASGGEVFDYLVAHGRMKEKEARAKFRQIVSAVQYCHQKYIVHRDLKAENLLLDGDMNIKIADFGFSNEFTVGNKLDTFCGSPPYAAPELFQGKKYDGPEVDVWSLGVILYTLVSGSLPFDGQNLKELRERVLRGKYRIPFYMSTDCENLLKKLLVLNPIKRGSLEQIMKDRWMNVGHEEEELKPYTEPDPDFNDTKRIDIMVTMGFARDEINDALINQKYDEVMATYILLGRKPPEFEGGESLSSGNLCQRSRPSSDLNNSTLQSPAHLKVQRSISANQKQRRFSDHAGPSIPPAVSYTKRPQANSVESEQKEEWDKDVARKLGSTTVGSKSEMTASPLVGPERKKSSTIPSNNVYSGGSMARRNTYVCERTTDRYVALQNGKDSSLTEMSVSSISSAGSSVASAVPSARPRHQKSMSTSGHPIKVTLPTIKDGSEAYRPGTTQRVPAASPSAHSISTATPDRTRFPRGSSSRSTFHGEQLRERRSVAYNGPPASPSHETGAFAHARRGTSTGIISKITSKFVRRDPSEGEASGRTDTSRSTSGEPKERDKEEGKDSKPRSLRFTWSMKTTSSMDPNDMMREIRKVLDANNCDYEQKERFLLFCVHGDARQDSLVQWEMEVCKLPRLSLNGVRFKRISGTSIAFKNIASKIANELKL
Assay: Kinase profiling (radiometric filter-binding)
Format: biochemical
Conditions: MARK1, 1 µM inhibitor; read-out: Residual activity, %
Square brackets hold non-standard residues; d marks the D form. Peptide text beside a SMILES is read from it. * marks the point of attachment. X3 = O=C(CCCCCNCc1nc2c(sc3cc(Br)cnc32)c(=O)[nH]1)*
Recorded remaining activity at 1 µM, one value per entry.
recorded-metric: remaining activity at 1 µM (%)

compound | recorded-metric | readout-units | quantitative-readout
N=C(N)NCCC[C@@H](NC(=O)CNC(=O)[C@@H](CCCNC(=N)N)NC(=O)[C@@H](CCCNC(=N)N)NC(=O)Cn1cc(CNCc2nc3c(sc4ccc(Br)cc43)c(=O)[nH]2)nn1)C(=O)N[C@H](CCCCN)C(N)=O | remaining activity at 1 µM | % | 106
N=C(N)NCCC[C@@H](NC(=O)CCCCCNCc1nc2c(sc3cc(Br)cnc32)c(=O)[nH]1)C(=O)N[C@H](CCCNC(=N)N)C(=O)N[C@H](CCCNC(=N)N)C(=O)N[C@H](CCCNC(=N)N)C(=O)N[C@H](CCCNC(=N)N)C(=O)N[C@H](CCCNC(=N)N)C(=O)N[C@H](CCCCN)C(N)=O [ARC-3126, BPTP-Ahx-(D-Arg)6-D-Lys-NH2] (X3-[dR][dR][dR][dR][dR][dR][dK]-NH2) | remaining activity at 1 µM | % | 94
N=C(N)NCCC[C@@H](NC(=O)CNC(=O)[C@@H](CCCNC(=N)N)NC(=O)[C@@H](CCCNC(=N)N)NC(=O)CCCCCCCNCc1nc2c(sc3ccc(Br)cc32)c(=O)[nH]1)C(=O)N[C@H](CCCCN)C(N)=O | remaining activity at 1 µM | % | 113
N=C(N)NCCC[C@@H](NC(=O)CCCCCNC(=O)Cn1cnc2c(I)c(I)c(I)c(I)c21)C(=O)N[C@H](CCCNC(=N)N)C(=O)N[C@H](CCCNC(=N)N)C(=O)N[C@H](CCCNC(=N)N)C(=O)N[C@H](CCCNC(=N)N)C(=O)N[C@H](CCCNC(=N)N)C(=O)N[C@H](CCCCN)C(N)=O | remaining activity at 1 µM | % | 76
N=C(N)NCCC[C@@H](NC(=O)CNC(=O)[C@@H](CCCNC(=N)N)NC(=O)[C@@H](CCCNC(=N)N)NC(=O)CCCCCCCNCc1nc2c(sc3cc(Br)cnc32)c(=O)[nH]1)C(=O)N[C@H](CCCCN)C(N)=O | remaining activity at 1 µM | % | 110
